Tested on: SK-MEL-28 melanoma
assay-protocol: NCI-60 one-dose screen, 48 h (100 = growth as untreated, 0 = no growth, -100 = all killed)
condition-details: 10 µM unless noted
The panel holds about 83,000 compounds, 20% with a hit somewhere; the sample as a whole holds those more often.
Examples of molecules with documented growth follow.
readout-name: growth (%)

In [3]: df
Out[3]:
                                   molecule  readout_name  test_value
0  CN(Cc1cnc2nc(N)nc(N)c2n1)c1c(Cl)cc(C(=O)NC(CCC(=O)O)C(=O)O)cc1Cl (stereo not given)        growth        63.3
1  COc1cc(/C=C/c2cc(/C=C/c3ccc(O)c(OC)c3)n(C(=O)Nc3ccc(F)cc3)n2)ccc1O        growth        16.7
2  COC(=O)C1=Nc2ccc(F)cc2/C1=C\c1sc(Nc2ccc(O)cc2)nc1O        growth        66.1
3  C[Se]C(=O)CC1=C2C=C(F)C=CC2/C(=C\c2ccc(S(C)=O)cc2)C1C (stereo not given)        growth        4.39
4  Cc1cccc(N2CCN(C(=S)c3ccc4c(c3)OCO4)CC2)c1        growth          54

---

System: KM12 colon
assay-protocol: NCI-60 one-dose screen, 48 h (100 = growth as untreated, 0 = no growth, -100 = all killed)
condition-details: 10 µM unless noted
Compounds without any hit were thinned out: in the full panel of roughly 83,000, 20% have a hit.
Threshold 80%: growth strictly smaller gives fulfilled, otherwise not fulfilled.

In [3]: df
Out[3]:
                                   molecule  measured_on       category
0  CC1(C)CC[C@]2(C(=O)N3CCOCC3)CC[C@]3(C)C(=CC[C@@H]4[C@@]5(C)C/C(=C/c6ccncc6)C(=O)C(C)(C)[C@@H]5CC[C@]43C)[C@@H]2C1   KM12 colon      fulfilled
1  FC(F)(F)c1[nH]ncc1-c1nc2c(N3CCCCC3)cc3[nH]ncc3c2c2c1CCCC2   KM12 colon      fulfilled
2  CC12CCC(/C(=C/NNc3ccc([N+](=O)[O-])cc3[N+](=O)[O-])C1=O)C2(C)C (centres undefined)   KM12 colon  not fulfilled
3   COc1ccc(OC)c(Nc2nnc(-c3ccc(Cl)cc3)o2)c1   KM12 colon      fulfilled
4         CCCCc1oc2ccccc2c1C(=O)c1ccc(O)cc1   KM12 colon      fulfilled
5  Cc1c(Cl)cccc1C(=O)Nc1nc2c(s1)CN(C(=O)Nc1cccc(C(F)(F)F)c1)CC2   KM12 colon      fulfilled
6    N#C/C(=C\c1ccc(Br)cc1)c1cc2ccccc2[nH]1   KM12 colon  not fulfilled
7  CCOC(=O)c1c(-c2ccccc2)n2c(=O)cc(C)c3c(O)c(O)cc1c32   KM12 colon      fulfilled

---

Test system: SF-539 CNS
assay-protocol: NCI-60 one-dose screen, 48 h
condition-details: 10 µM unless noted
About 83,000 compounds went through this panel and 20% of them were active in at least one assay; those are over-represented in the sample as a whole. The source made the active and inactive calls. How the source made its calls: active means growth percent below 10; inactive means the rest.
Possible outcomes: YES (active), NO (inactive)

>>> df
                                   compound  category
0   O=C(CCCCNC(=O)c1cc(=O)c(O)co1)Nc1ccccc1        NO
1  COc1cc2oc(-c3cccc(NC(=O)c4ccc5c(c4)OCO5)c3)cc(=O)c2c(OC)c1OC        NO
2  COc1cc(/C=C2\C(=O)N(c3c(Cl)cccc3Cl)c3ccccc32)cc(OC)c1OCCCCCCn1c2ccccc2c(=O)c2ccccc21        NO
3             O=C(/C=C\c1ccco1)/C=C/c1ccco1        NO
4  COc1ccc(-c2cc(C(=O)N3N=C(c4ccc(N)cc4)CC3c3ccccc3)c3ccccc3n2)cc1 (stereo not given)        NO
5             Cn1cccc1/C=C1\C(=O)Nc2ccccc21        NO
6  CCOC(=O)c1c(C)nc2ccccc2c1/C=C/c1ccc(OC)cc1        NO
7  CC1CN=C(c2cccc(-c3ccc(-c4ccccc4)o3)c2)N1 (stereo not given)       YES
8  NS(=O)(=O)c1ccc(N/C=C/C(=O)c2cc3ccccc3oc2=O)cc1        NO
9             CCN(CC)CCN(CCN(CC)CC)c1ccccc1        NO
